test system: HS 578T breast; experiment: NCI tumour cell line growth inhibition, 48 h
Where a SMILES comes first, the peptide text is derived from it. The star is where a group is joined. Boc = CC(C)(C)OC(=O)*; OBn = c1ccc(CO*)cc1; Bn = c1ccc(C*)cc1
property_label: TGI

# compound, result
measured = [
    ("NC(=O)c1ncn(C2CCC(CP(=O)(O)O)C2)c1N (centres undefined)", "> 100 µM"),
    ("COc1ccc2c(c1)Cc1cc(N=[N+]([O-])c3ccc4c(c3)Cc3cc(OC)ccc3-4)ccc1-2", "> 100 µM"),
    ("O=C(/C=C/c1ccccc1O)CC(=O)/C=C/c1ccccc1O", "> 31.6 µM"),
]

Next item in the queue.
Any idea what its TGI is? The compound is CC(C)CC(NC(=O)C(CCC(=O)OCc1ccccc1)NC(=O)OC(C)(C)C)C(=O)NC(COCc1ccccc1)C(=O)NC(Cc1ccccc1)C(=O)O (centres undefined) (Boc-E(OBn)LS(Bn)F-OH; configuration not given here)
> 100 µM

====

Consider the following molecules; for each one, report its TGI.
system: HCT-116 colon; assay: NCI tumour cell line growth inhibition, 48 h

# molecule, result
data = [
    ("CC1CCC(O)/C=C/C(=O)OC(C)C(O)/C=C/C(=O)O1 (stereo not drawn)", "> 100 µM"),
]

Quick batch: TGI for everything below.
1. COc1ccc2c(c1)Cc1cc(N=[N+]([O-])c3ccc4c(c3)Cc3cc(OC)ccc3-4)ccc1-2
2. O=C(O)CSc1ccn(Cc2ccccc2)c1

1: > 100 µM; 2: > 100 µM

====

Consider the following compounds; for each one, report its GI50.
system: RXF 393 renal; assay: NCI tumour cell line growth inhibition, 48 h

# compound, GI50
measured = [
    ("C=CC[n+]1c(/C=C2\\Sc3ccccc3N2C)sc(-c2ccccc2)c1-c1ccccc1", "519 nM"),
    ("COc1cc(C2CC(c3ccc(C)cc3)=NN2C(C)=O)ccc1Oc1ccnc2cc(Cl)ccc12 (stereo not given)", "3570 nM"),
    ("COC(=O)C1=C(O)C(C(=O)OC)[C@@]2(O)[C@@H](C(=O)OC)C(c3ccccc3C(F)(F)F)C[C@@H]1[C@@H]2C(=O)OC (stereo not given in full)", "3110 nM"),
    ("O=C1C=Cc2cc3ccccc3c3cccc1c23", "2710 nM"),
]

Next item in the queue.
Any idea what its GI50 is? The compound is CCCCC#Cc1c(I)n(C2OC(CO[Si](C)(C)C(C)(C)C)C3OC(C)(C)OC32)c(=O)[nH]c1=O (stereo not given)
1500 nM

====

tested on: MDA-MB-435; experiment: NCI tumour cell line growth inhibition, 48 h
Where a SMILES comes first, the peptide text is derived from it. [ ]: non-standard residue; d: D form. The star is where a group is joined. ξ: configuration not given here. 4Abz = Nc1ccc(C(=O)O)cc1; ξL = CC(C)CC(N)C(=O)O; NHOH = ON*
property_label: TGI

Before answering, review these 3 worked examples.
# molecule, property_label, result
data = [
    ("S=c1sc2ccccc2n1CN1CCN(Cc2ccccc2)CC1", "TGI", "> 100 µM"),
    ("CC(C)CC(NC(=O)[C@@H]1CCCN1C(=O)CNC(=O)c1ccc(N)cc1)C(=O)N[C@H](C)C(=O)NO (some centres undefined) (H-[4Abz]GP[ξL][dA]-{NHOH})", "TGI", "> 100 µM"),
    ("O=C(OCc1ccccc1[N+](=O)[O-])N1c2ccccc2[C@@]23O[C@]24CCC[C@H]3C#C/C=C\\C#C[C@H]14", "TGI", "> 100 µM"),
]

Any idea what its TGI is? The molecule is Cc1ccc(NC(=O)C(=O)C2C(=O)C3=C(CC2(C)C)NC2C=CC=CC2S3)c(C)c1 (centres undefined)
> 100 µM
